Form field: Ratio IC50 (one value per entry).
- Experiment Summary: Selectivity index, ratio of IC50 for cytotoxicity against human NFF cells to […] for antiproliferative activity against mouse NS-1 cells

Cc1cc(O)c2c(c1)C(=O)C(c1c(C)cc3c(c1O)C(=O)C=CC3=O)=CC2=O 10
Cc1cc(O)c2c(c1)C(=O)C=C(c1c(C)cc3c(c1O)C(=O)C=CC3=O)C2=O 14
COc1cc(C)cc2c1C(=O)C=C(c1c(C)cc3c(c1OC)C(=O)C=CC3=O)C2=O 31
Cc1cc(O)c2c(c1)C(=O)C=CC2=O 15

Let us examine a further case.
Data request: Give its Ratio IC50 value. Item: `O=c1[nH]cc(F)c(=O)[nH]1`
Data returned: >352
